System: Cortical neurone
Experiment: Cytotoxicity against primary C57BL/6J E14-17 mouse Cortical neuron assessed as decrease in cell viability at 1 uM incubated for 24 hrs by CCK-8 assay relative to control
Type: toxicity, cell-based
MEASURED_ATTRIBUTE: Activity (%)
Return type: number; implicit unit %.

Query: Need Activity, item Clc1ccc([C@@H]2CC[C@@H](NCc3ccc4c(c3)OCO4)c3ccccc32)cc1Cl (relative stereo)
Result: 104.95

Query: Need Activity, item CCCCCCN[C@@H]1CC[C@@H](c2ccc(Cl)c(Cl)c2)c2ccccc21 (relative stereo)
Result: 98.87

Query: Need Activity, item Clc1ccc([C@@H]2CC[C@@H](NCCc3c[nH]c4ccccc34)c3ccccc32)cc1Cl (relative stereo)
Result: 104.13

Query: Need Activity, item Clc1ccc(CN[C@@H]2CC[C@@H](c3ccc(Cl)c(Cl)c3)c3ccccc32)cc1Cl
Result: 101.08

Query: Need Activity, item CC(C)CN[C@@H]1CC[C@@H](c2ccc(Cl)c(Cl)c2)c2ccccc21 (relative stereo)
Result: 96.1

Query: Need Activity, item Clc1ccc([C@@H]2CC[C@@H](NCCCCc3ccccc3)c3ccccc32)cc1Cl (relative stereo)
Result: 98.28

Query: Need Activity, item O=C(CCCCl)N[C@@H]1CC[C@@H](c2ccc(Cl)c(Cl)c2)c2ccccc21 (relative stereo)
Result: 92.02

Query: Need Activity, item CN[C@@H]1CC[C@@H](c2ccc(Cl)c(Cl)c2)c2ccccc21 (racemic)
Result: 94.5

Query: Need Activity, item Clc1ccc([C@@H]2CC[C@@H](NC3CCCCC3)c3ccccc32)cc1Cl (relative stereo)
Result: 97.01

Query: Need Activity, item Clc1ccc([C@@H]2CC[C@@H](NCc3cccc4ccccc34)c3ccccc32)cc1Cl (relative stereo)
Result: 95.27

Query: Need Activity, item CC(C)(C)c1ccc(CN[C@@H]2CC[C@@H](c3ccc(Cl)c(Cl)c3)c3ccccc32)cc1 (relative stereo)
Result: 93.91

Query: Need Activity, item COc1ccc(CN[C@@H]2CC[C@@H](c3ccc(Cl)c(Cl)c3)c3ccccc32)cc1OC (relative stereo)
Result: 99.79

Query: Need Activity, item NCCN[C@@H]1CC[C@@H](c2ccc(Cl)c(Cl)c2)c2ccccc21 (relative stereo)
Result: 103.68

Query: Need Activity, item Clc1ccc([C@@H]2CC[C@@H](NCC3CCCCC3)c3ccccc32)cc1Cl (relative stereo)
Result: 100.42

Query: Need Activity, item CC(C)(C)OC(=O)NCCN[C@@H]1CC[C@@H](c2ccc(Cl)c(Cl)c2)c2ccccc21 (relative stereo)
Result: 98.85

Query: Need Activity, item N[C@@H]1CC[C@@H](c2ccc(Cl)c(Cl)c2)c2ccccc21 (relative stereo)
Result: 99.05

Query: Need Activity, item CCCCN[C@@H]1CC[C@@H](c2ccc(Cl)c(Cl)c2)c2ccccc21 (relative stereo)
Result: 95.75

Query: Need Activity, item Cc1cccc(CN[C@@H]2CC[C@@H](c3ccc(Cl)c(Cl)c3)c3ccccc32)c1 (relative stereo)
Result: 96.85

Query: Need Activity, item CN[C@H]1CC[C@@H](c2ccc(Cl)c(Cl)c2)c2ccccc21 (racemic) [SERTRALINE]
Result: 96.32

Query: Need Activity, item NCCCCN[C@@H]1CC[C@@H](c2ccc(Cl)c(Cl)c2)c2ccccc21 (relative stereo)
Result: 90.11

Query: Need Activity, item CCCN[C@@H]1CC[C@@H](c2ccc(Cl)c(Cl)c2)c2ccccc21 (relative stereo)
Result: 96.43

Query: Need Activity, item COc1ccc(CN[C@@H]2CC[C@@H](c3ccc(Cl)c(Cl)c3)c3ccccc32)cc1 (relative stereo)
Result: 98.78

Query: Need Activity, item Cc1ccc(CN[C@@H]2CC[C@@H](c3ccc(Cl)c(Cl)c3)c3ccccc32)cc1 (relative stereo)
Result: 92.92

Query: Need Activity, item CC(N[C@@H]1CC[C@@H](c2ccc(Cl)c(Cl)c2)c2ccccc21)c1ccccc1 (some centres undefined)
Result: 98.48

Query: Need Activity, item FC(F)(F)c1cccc(CN[C@@H]2CC[C@@H](c3ccc(Cl)c(Cl)c3)c3ccccc32)c1 (relative stereo)
Result: 90.68

Query: Need Activity, item CN[C@H]1CC[C@@H](c2ccc(Cl)c(Cl)c2)c2ccccc21 [SERTRALINE]
Result: 99.08

Query: Need Activity, item CC1=NN(c2ccccc2)C(=O)C1
Result: 98.61

Query: Need Activity, item COc1cccc(CN[C@@H]2CC[C@@H](c3ccc(Cl)c(Cl)c3)c3ccccc32)c1 (relative stereo)
Result: 95.52

Query: Need Activity, item NCCCCCCN[C@@H]1CC[C@@H](c2ccc(Cl)c(Cl)c2)c2ccccc21 (relative stereo)
Result: 48.84

###

System: Cortical neurone
Assay: Cytotoxicity against primary C57BL/6J E14-17 mouse Cortical neuron assessed as decrease in cell viability at 10 uM incubated for 24 hrs by CCK-8 assay relative to control
Format: toxicity, cell-based
MEASURED_ATTRIBUTE: Activity (%)
Return type: number; implicit unit %.

Query: Need Activity, item Clc1ccc([C@@H]2CC[C@@H](NCC3CCCCC3)c3ccccc32)cc1Cl (relative stereo)
Result: 103.51

Query: Need Activity, item CC(C)(C)c1ccc(CN[C@@H]2CC[C@@H](c3ccc(Cl)c(Cl)c3)c3ccccc32)cc1 (relative stereo)
Result: 93.23

Query: Need Activity, item COc1ccc(CN[C@@H]2CC[C@@H](c3ccc(Cl)c(Cl)c3)c3ccccc32)cc1OC (relative stereo)
Result: 95.48

Query: Need Activity, item CC(C)(C)OC(=O)NCCN[C@@H]1CC[C@@H](c2ccc(Cl)c(Cl)c2)c2ccccc21 (relative stereo)
Result: 94.48

Query: Need Activity, item Clc1ccc([C@@H]2CC[C@@H](NCc3cccc4ccccc34)c3ccccc32)cc1Cl (relative stereo)
Result: 96.52
